# credit: patent US5610160A

- protocol_notes: shake-flask, brief shaking, IPM phase analyzed immediately
- measurement_context: 23 ± 1 °C
property_name: log partition isopropyl myristate / pH 4.0 acetate buffer (concentration ratio)
Answer in concentration ratio, number only, no unit symbol.

Here's what some known entries look like.
INSERT INTO assay_data (compound, measured_result) VALUES
  ('CC(=O)n1c(=O)[nH]cc(F)c1=O [Compound 13]', 0.040),
  ('CCOC(=O)n1cc(F)c(=O)[nH]c1=O [Compound 8]', 0.0757),
  ('CCCCOC(=O)n1cc(F)c(=O)[nH]c1=O [Compound 10]', 1.46),
  ('COC(=O)n1cc(F)c(=O)[nH]c1=O [Compound 7]', 0.026),
  ('CC(=O)n1cc(F)c(=O)[nH]c1=O [Compound 1]', 0.185);

Reported log partition isopropyl myristate / pH 4.0 acetate buffer of CCCC(=O)n1c(=O)[nH]cc(F)c1=O [Compound 15] : 0.97

For CCCOC(=O)n1cc(F)c(=O)[nH]c1=O [Compound 9] the compound record lists log partition isopropyl myristate / pH 4.0 acetate buffer as 0.359

Sample CCCCC(=O)n1cc(F)c(=O)[nH]c1=O [Compound 4] ; log partition isopropyl myristate / pH 4.0 acetate buffer observed: 11.3

# log partition isopropyl myristate / pH 4.0 acetate buffer (compound: CCC(=O)n1cc(F)c(=O)n(C(=O)CC)c1=O [Compound 18] ) is 33.8

The recorded log partition isopropyl myristate / pH 4.0 acetate buffer for CCC(=O)n1cc(F)c(=O)[nH]c1=O [Compound 2] is 0.764

====

- protocol_notes: Solubility of prodrug in isopropyl myristate (IPM)
- measurement_context: isopropyl myristate, organic solvent or mixture
property_name: log10 of solubility (log10 of the value in µg/mL)
Hello, just confirming the data are log10 of solubility with units of µg/mL.

INSERT INTO measurements (smiles_structure, measured_result) VALUES
  ('CCCCOC(=O)n1cc(F)c(=O)[nH]c1=O', 3.89),
  ('CCCOC(=O)n1cc(F)c(=O)[nH]c1=O', 3.52),
  ('CCC(=O)n1c(=O)[nH]cc(F)c1=O', 3.42);

Consider CCCCCCCCOC(=O)n1cc(F)c(=O)[nH]c1=O . Its measured log10 of solubility is 4.02

The reported value for CCC(=O)n1cc(F)c(=O)n(C(=O)CC)c1=O in terms of log10 of solubility is 4.24

====

Entries and their solubility values follow.
- protocol_notes: Solubility of prodrug in isopropyl myristate (IPM)
- measurement_context: isopropyl myristate, organic solvent or mixture
Form entry: value (µg/mL) — number only.

The molecule listed as CCCC(=O)n1cc(F)c(=O)[nH]c1=O has a reported solubility of 3480

// CCCC(=O)n1cc(F)c(=O)n(C(=O)CCC)c1=O : solubility value = 169000

Lookup result for CCCCCCCC(=O)n1cc(F)c(=O)[nH]c1=O ; measured solubility: 28400

Input CCCCC(=O)n1cc(F)c(=O)[nH]c1=O . Output solubility: 8390

Noted for CCOC(=O)n1cc(F)c(=O)[nH]c1=O : its solubility reads 2640

solubility reading for O=c1[nH]cc(F)c(=O)[nH]1 : 6.4

The molecule listed as COC(=O)n1cc(F)c(=O)[nH]c1=O has a reported solubility of 400
